B1: CPEB3 Ribozyme (parent)
chain: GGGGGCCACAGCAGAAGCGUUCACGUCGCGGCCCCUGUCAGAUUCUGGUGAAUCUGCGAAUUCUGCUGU

variants of: B1; assay: self-cleavage, relative activity (ratio to wild type); higher = more cleavage; co-transcriptional
Respond with met for self-cleavage values of 0.7 and above, not met for values below.

- variant description: "G2C C66G"
  label class: "not met"
- variant description: "C24U U69C"
  label class: "met"
- variant description: "C6U G14U"
  label class: "not met"
- variant description: "G3C U38C"
  label class: "not met"
- variant description: "C34U U43C"
  label class: "met"
- variant description: "C33G U62C"
  label class: "not met"
- variant description: "G31U G41A"
  label class: "not met"
- variant description: "C39A G47C"
  label class: "met"
- variant description: "G2U U55G"
  label class: "not met"
- variant description: "C9U U21G"
  label class: "met"
- variant description: "C24U C39G"
  label class: "not met"
- variant description: "C34U A59U"
  label class: "met"
- variant description: "A8U G58A"
  label class: "met"
- variant description: "G25A G41A"
  label class: "not met"
- variant description: "U36A C63A"
  label class: "not met"
- variant description: "G11U A40U"
  label class: "not met"
- variant description: "G1U G11C"
  label class: "not met"
- variant description: "C7G G11C"
  label class: "not met"
- variant description: "G3C C12G"
  label class: "not met"
- variant description: "C12G G68A"
  label class: "met"
- variant description: "C7U G11C"
  label class: "not met"
- variant description: "U46G G68A"
  label class: "met"
- variant description: "C32A U69G"
  label class: "met"
- variant description: "C35A U61C"
  label class: "not met"
- variant description: "G17C U21A"
  label class: "not met"
- variant description: "A16C C22U"
  label class: "not met"
- variant description: "C29A C39A"
  label class: "not met"
- variant description: "G3U A59G"
  label class: "not met"
- variant description: "G4U A23C"
  label class: "not met"
- variant description: "G30C U67G"
  label class: "met"
- variant description: "A10G G28C"
  label class: "not met"
- variant description: "G17U G65C"
  label class: "not met"
- variant description: "G1U C33U"
  label class: "not met"
- variant description: "C32U C57A"
  label class: "not met"
- variant description: "U49G G50U"
  label class: "met"
- variant description: "C27G G48C"
  label class: "not met"
- variant description: "C63U G65C"
  label class: "not met"
- variant description: "C32G U55A"
  label class: "not met"
- variant description: "C9A G65U"
  label class: "met"
- variant description: "C29U G48C"
  label class: "not met"
- variant description: "C39U A51G"
  label class: "met"
- variant description: "G2A G4C"
  label class: "not met"
- variant description: "G4U U67G"
  label class: "met"
- variant description: "G1C U69G"
  label class: "not met"
- variant description: "G2U U46G"
  label class: "not met"

Entry source: the RNAGym collection of RNA variant scans (doi:10.7554/elife.80360)
